Target: Glucocorticoid receptor (Homo sapiens) (UniProt P04150)
Sequence (P04150 whole entry, looked up): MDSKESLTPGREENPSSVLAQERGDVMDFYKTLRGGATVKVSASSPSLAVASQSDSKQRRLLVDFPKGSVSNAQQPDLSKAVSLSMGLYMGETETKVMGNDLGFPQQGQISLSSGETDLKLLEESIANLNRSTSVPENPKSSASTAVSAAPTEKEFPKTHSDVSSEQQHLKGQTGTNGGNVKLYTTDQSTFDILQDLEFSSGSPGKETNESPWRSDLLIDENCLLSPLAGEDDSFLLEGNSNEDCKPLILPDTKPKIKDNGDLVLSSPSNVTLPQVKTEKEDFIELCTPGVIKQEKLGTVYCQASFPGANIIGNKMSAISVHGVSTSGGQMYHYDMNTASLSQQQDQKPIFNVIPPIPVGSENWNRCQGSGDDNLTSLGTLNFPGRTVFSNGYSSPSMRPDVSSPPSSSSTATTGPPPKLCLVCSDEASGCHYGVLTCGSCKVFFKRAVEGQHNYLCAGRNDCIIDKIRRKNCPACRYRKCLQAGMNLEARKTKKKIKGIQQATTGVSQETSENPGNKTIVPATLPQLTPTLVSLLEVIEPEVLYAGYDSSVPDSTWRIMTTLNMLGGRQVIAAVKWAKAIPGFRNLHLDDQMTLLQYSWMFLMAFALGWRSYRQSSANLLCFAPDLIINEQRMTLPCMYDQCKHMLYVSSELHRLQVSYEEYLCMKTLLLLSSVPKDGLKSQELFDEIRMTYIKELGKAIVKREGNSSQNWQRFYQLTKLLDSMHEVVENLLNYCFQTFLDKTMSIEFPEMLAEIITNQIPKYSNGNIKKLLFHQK
Experiment: qHTS assay to identify small molecule agonists of the glucocorticoid receptor (GR) signaling pathway (AID 720691); as to activation: % is scaled to controls: 0 for no effect and ±100 for the full control effect
Conditions: GR-bla HeLa, beta-lactamase reporter ratio, 18 h
Calls of active or inactive are those of the source. Calls follow the shape of the dose curve; as a rule, active = well fitted activation curve with a large enough effect in the signal ratio in the repeat runs (not every such curve was filed as active); inconclusive = weak or mixed curves, or effect the other way; inactive = no such curve, though single readings can be large or run the other way; the % refers to the signal ratio.
Labels: active, inactive

| molecule | classification |
| --- | --- |
| Cc1ccc2oc(CN(Cc3ccccc3)C(=O)Nc3c(F)cc(F)cc3F)c(-c3ccc(Cl)cc3)c2c1 | inactive |
| CN(C)c1ccc(C2(c3ccc(N(C)C)cc3)OC(=O)c3cc(N(C)C)ccc32)cc1 | active |
| CCCCC(CC)COC(=O)c1ccccc1C(=O)O (stereo unspecified) | inactive |
| N#CSc1ccc(N)c([N+](=O)[O-])c1 | inactive |
| C[C@]12CCC(=O)C=C1CC[C@@H]1[C@@H]2[C@@H](O)C[C@@]2(C)[C@H]1CC[C@]2(O)C(=O)COC(=O)CCC(=O)O | active |
| Clc1ccc2n[nH]nc2c1 | inactive |
| C[n+]1ccn(Cc2ccccc2)c1 | inactive |
| Cc1nc(-c2ccc3c(c2)CCN(CCC2CCC(NC(=O)/C=C/c4ccc(F)cc4)CC2)CC3)no1 (stereo unspecified) | active |
| CNCc1cc(F)ccc1Oc1ccc(Cl)c(Cl)c1 | inactive |
| C=C(C)C(=O)OCC[N+](C)(C)C | inactive |
| Cc1cc(O)c(Cl)c(C)c1Cl | inactive |

---

Assay: qHTS assay to identify small molecule antagonists of the retinoid acid receptor (RAR) signaling pathway - cell viability counter screen (AID 1159551); also: nearly all actives have a fitted effect of over 35% in size
Conditions: C3RL4 cells viability, ATP luminescence (CellTiter-Glo), 6 h; series mostly up to 92.4 µM
Inconclusive results are not listed. Calls of active or inactive are those of the source. The call rests on the fitted dose curve; in most records, active means well fitted cell-killing curve with a large enough effect in the repeat runs; inconclusive means weak or mixed curves, or effect the other way; inactive means flat fitted curve, though single readings scatter.
Labels: true (1) = active, false (0) = inactive

| compound | classification |
| --- | --- |
| NNc1nc(-c2ccccc2)cs1 | false (0) |
| CSc1ccc2c(c1)C(N1CCN(C)CC1)Cc1ccccc1S2 (stereo not drawn) | false (0) |
| CCCCCCC[N+](CC)(CC)CCCCc1ccc(Cl)cc1 | false (0) |
| O=C1CCCCCN1SSN1CCCCCC1=O | false (0) |
| CC(C)(C)CC(C)(C)c1ccc(OCCOCC[N+](C)(C)Cc2ccccc2)cc1 | true (1) |
| CC(C)C(C)(C)C(C)(C)C(C)(C)S | false (0) |
| Cc1cc(O)c2ccccc2c1O | true (1) |
| CSc1ccc(/C=C2/C(C)=C(CC(=O)O)c3cc(F)ccc32)cc1 | false (0) |

---

Molecular target: Nuclear receptor subfamily 1 group I member 2 (Homo sapiens) (UniProt O75469)
Sequence (O75469 whole entry, looked up): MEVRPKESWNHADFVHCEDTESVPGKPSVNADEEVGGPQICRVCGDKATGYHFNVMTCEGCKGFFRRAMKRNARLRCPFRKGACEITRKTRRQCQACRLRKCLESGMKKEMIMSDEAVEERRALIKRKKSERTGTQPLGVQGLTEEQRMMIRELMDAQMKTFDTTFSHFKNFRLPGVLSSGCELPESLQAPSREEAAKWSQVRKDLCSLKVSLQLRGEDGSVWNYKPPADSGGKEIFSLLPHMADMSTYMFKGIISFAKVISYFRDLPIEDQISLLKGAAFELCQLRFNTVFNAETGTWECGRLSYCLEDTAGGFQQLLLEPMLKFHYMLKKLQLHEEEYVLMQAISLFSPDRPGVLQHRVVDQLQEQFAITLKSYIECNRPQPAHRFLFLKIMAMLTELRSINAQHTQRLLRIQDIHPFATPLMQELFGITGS
Experiment: Human pregnane X receptor (PXR) small molecule agonists, qHTS assay (AID 1346982); also: nearly all actives have a fitted effect of over 35% in size; as to activation: % is scaled to controls: 0 for no effect and ±100 for the full control effect
Settings: PXR-Luc HepG2, CYP3A4 luciferase reporter, 24 h; series mostly up to 92.4 µM
Records with an inconclusive call do not appear. The source made the active and inactive calls. Calls come from the whole dose curve; as a rule, active = well fitted activation curve with a large enough effect in the repeat runs; inconclusive = weak or mixed curves; inactive = no such curve, though single readings can be large or run the other way.
Labels: TRUE for active, FALSE for inactive

| molecule | classification |
| --- | --- |
| CCCCC(CC)CN=C(N)NC(N)=NCCCCCCN=C(N)NC(N)=NCC(CC)CCCC (centres undefined) | FALSE |
| CN(C)[C@@H]1C(=O)C(C(N)=O)=C(O)[C@@]2(O)C(=O)C3=C(O)c4c(O)ccc(Cl)c4[C@@H](O)[C@H]3C[C@@H]12 | FALSE |
| Oc1cccc(-c2c3nc(c(-c4cccc(O)c4)c4ccc([nH]4)c(-c4cccc(O)c4)c4nc(c(-c5cccc(O)c5)c5ccc2[nH]5)CC4)C=C3)c1 | FALSE |
| CCOc1nc2cccc(C(=O)OC(C)OC(=O)OC3CCCCC3)c2n1Cc1ccc(-c2ccccc2-c2nn[nH]n2)cc1 (centres undefined) | TRUE |
| CCOC(=O)c1nc(C(Cl)(Cl)Cl)n(-c2ccc(Cl)cc2Cl)n1 | TRUE |
| CCCCCCCCNC(C)C(O)c1ccc(SC(C)C)cc1 (centres undefined) | FALSE |
| Nc1ccc2cc(S(=O)(=O)O)cc(O)c2c1N=Nc1ccccc1C(F)(F)F | FALSE |
| CCOC(=O)O[C@]1(C(=O)OCCl)CC[C@H]2[C@@H]3CCC4=CC(=O)C=C[C@]4(C)[C@H]3[C@@H](O)C[C@@]21C | TRUE |
| N#CC1(c2ccc(F)cc2)CCC(=O)CC1 | FALSE |
